system: Escherichia coli; assay: Antibacterial activity against Escherichia coli MTCC 443 assessed as growth inhibition at 100 ug/mL after 14 hrs by cup plate method; type: functional; conditions: MTCC 443, 14 h, read-out: DIZ
outcome.measure: zone of inhibition at 100 µg/mL (mm)
Value expressed in mm; do not type the unit.

Worked set:
>>> measured_result("Cc1cc(=O)oc2cc(OCCCCCCn3cc(CN4CCCCC4)nn3)ccc12")
12.8
>>> measured_result("Cc1cc(=O)oc2cc(OCCCCCCN=[N+]=[N-])ccc12")
14.3
>>> measured_result("Cc1cc(=O)oc2cc(OCCCCCCn3cc(CN4CCN(C)CC4)nn3)ccc12")
14.7
>>> measured_result("Cc1cc(=O)oc2cc(OCCCCn3cc(CN4C(=O)c5ccccc5C4=O)nn3)ccc12")
12.7

Now look at this entry.
Ask | Would you mind telling me what zone of inhibition at 100 µg/mL value was observed for Cc1cc(=O)oc2cc(OCCCCN=[N+]=[N-])ccc12 ?
Reply | 13

###

test system: Staphylococcus aureus; experiment: Antibacterial activity against Staphylococcus aureus MTCC 096 assessed as growth inhibition at 100 ug/mL after 14 hrs by cup plate method; assay type: functional; conditions: MTCC 096, 14 h, read-out: DIZ
Overview of reported zone of inhibition at 100 µg/mL across a group of compounds:
Just the number in mm, nothing appended.

>>> measured_result("CC(=O)N1CCN(Cc2cn(CCCCCCOc3ccc4c(C)cc(=O)oc4c3)nn2)CC1")
14.4
>>> measured_result("Cc1cc(=O)oc2cc(OCCCCCCn3cc(CN4CCN(Cc5ccc6c(c5)OCO6)CC4)nn3)ccc12")
14
>>> measured_result("Cc1cc(=O)oc2cc(OCCCCn3cc(CN4C(=O)c5ccccc5C4=O)nn3)ccc12")
12.8
>>> measured_result("Cc1cc(=O)oc2cc(OCCCCCCn3cc(CN4CCOCC4)nn3)ccc12")
11.7

// next entry
Ask | Dear colleague, I am looking for the recorded zone of inhibition at 100 µg/mL of the following compound: Cc1cc(=O)oc2cc(OCCCCN=[N+]=[N-])ccc12
Reply | 13.5

###

tested on: Escherichia coli; assay: Antibacterial activity against Escherichia coli MTCC 443 assessed as growth inhibition at 100 ug/mL after 14 hrs by cup plate method; format: functional; details: MTCC 443, 14 h, read-out: DIZ
outcome.measure: zone of inhibition at 100 µg/mL (mm)
Number in mm, nothing else.

Known zone of inhibition at 100 µg/mL results, listed for orientation:
>>> measured_result("Cc1cc(=O)oc2cc(OCc3cn(CCCN4C(=O)c5ccccc5C4=O)nn3)ccc12")
12.6
>>> measured_result("Cc1cc(=O)oc2cc(OCc3cn(CCCCCN4C(=O)c5ccccc5C4=O)nn3)ccc12")
12.5

Ask | What value of zone of inhibition at 100 µg/mL has been reported for the following molecule? Cc1cc(=O)oc2cc(OCCCCCCn3cc(CN4CCCC4)nn3)ccc12
Reply | 11.7

Ask | What does the record list as zone of inhibition at 100 µg/mL for Cc1cc(=O)oc2cc(OCCCCCCn3cc(CN4CCOCC4)nn3)ccc12 ?
Reply | 14.4

Ask | Can you look up the measured zone of inhibition at 100 µg/mL of Cc1cc(=O)oc2cc(OCCCCCCn3cc(CN4C(=O)c5ccccc5C4=O)nn3)ccc12 for me?
Reply | 13.4

Ask | So what's the measured zone of inhibition at 100 µg/mL for this one? Cc1cc(=O)oc2cc(OCc3cn(CCCCN4C(=O)c5ccccc5C4=O)nn3)ccc12
Reply | 12.4

Ask | What measured zone of inhibition at 100 µg/mL goes with CC(=O)N1CCN(Cc2cn(CCCCCCOc3ccc4c(C)cc(=O)oc4c3)nn2)CC1 ?
Reply | 13.3

Ask | Given the molecule Cc1cc(=O)oc2cc(OCc3cn(CCN4C(=O)c5ccccc5C4=O)nn3)ccc12 , what is its reported zone of inhibition at 100 µg/mL?
Reply | 14.5

Ask | Quick one: zone of inhibition at 100 µg/mL of Cc1cc(=O)oc2cc(OCCCCCCn3cc(CN4CCN(Cc5ccc6c(c5)OCO6)CC4)nn3)ccc12 ?
Reply | 12.3
